Hello, the source for this data is patent US4564619A, in case you need it.

- experiment_notes: Change of blood pressure, intravenous administration, anesthetized dog
- Assay type: in vivo
- Design: unit not given here
- assay_conditions: femoral artery, 100 micrograms/kg
measurement_type: Change of blood pressure

Completed entries (count: 4):
molecule: COC(=O)C1=C(C)NC(C)=C(C(=O)OCCCCOc2ccc3c(c2)CCC(=O)N3)C1c1ccccc1 (centres unmarked)
Change of blood pressure: -20

molecule: COC(=O)C1=C(C)NC(C)=C(C(=O)OCCCCOc2ccc3c(c2)CCC(=O)N3)C1c1ccccc1C (centres unmarked)
Change of blood pressure: -70

molecule: COC(=O)C1=C(C)NC(C)=C(C(=O)OCCCOc2cccc3c2NC(=O)CC3)C1c1cccc([N+](=O)[O-])c1 (centres unmarked)
Change of blood pressure: -41

molecule: C=CCOc1ccc(OCCCOC(=O)C2=C(C)NC(C)=C(C(=O)OC)C2c2cccc([N+](=O)[O-])c2)c2c1NC(=O)CC2 (centres unmarked)
Change of blood pressure: -42

Please turn your attention to the following entry.
Looking up COC(=O)C1=C(C)NC(C)=C(C(=O)OCCOc2ccc3[nH]c(=O)ccc3c2)C1c1ccccc1[N+](=O)[O-] (centres unmarked) , I see its Change of blood pressure listed as -8

----------
Below, each entry is listed alongside its reported Change of blood pressure.
- experiment_notes: Change of blood pressure, intravenous administration, anesthetized dog
- Format: in vivo
- Set-up: unit not given here
- assay_conditions: femoral artery, 100 micrograms/kg
Lab note: write the figure by itself, no unit.

molecule: COC(=O)C1=C(C)NC(C)=C(C(=O)OCCOc2ccc3c(c2)CCC(=O)N3)C1c1cccc([N+](=O)[O-])c1 (stereo not drawn)
recorded_value: -18
--
molecule: COC(=O)C1=C(C)NC(C)=C(C(=O)OCCCOc2ccc3[nH]c(=O)ccc3c2)C1c1ccccc1 (stereo not drawn)
recorded_value: -6

Looking up COC(=O)C1=C(C)NC(C)=C(C(=O)OCCOc2ccc3c(c2)NC(=O)CC3)C1c1cccc([N+](=O)[O-])c1 (stereo not drawn) , I see its Change of blood pressure listed as -14
